# SYSTEM UNDER TEST: SULT1E1 (Homo sapiens)
# Sequence (P49888 whole entry): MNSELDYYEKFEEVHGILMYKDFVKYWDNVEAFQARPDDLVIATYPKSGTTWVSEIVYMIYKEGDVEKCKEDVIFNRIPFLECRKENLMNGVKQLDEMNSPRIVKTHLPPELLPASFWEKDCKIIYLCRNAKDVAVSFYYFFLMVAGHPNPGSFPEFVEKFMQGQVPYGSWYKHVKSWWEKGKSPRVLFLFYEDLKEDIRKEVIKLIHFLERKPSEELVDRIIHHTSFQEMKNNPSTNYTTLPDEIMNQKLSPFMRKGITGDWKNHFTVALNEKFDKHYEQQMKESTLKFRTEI

| TEST SMILES | SYSTEM UNDER TEST | IC50 |
| --- | --- | --- |
| CCc1nc2c(C)cc(N3CCN(CC(=O)N4CC(O)C4)CC3)cn2c1N(C)c1nc(-c2ccc(F)cc2)c(C#N)s1 | SULT1E1 (Homo sapiens) | < 800 nM |

---

# Format: in vivo, human
# CONDITION CONTEXT: female, human, plasma, oral, AUC0–inf, mean (CV%), OC alone (day 1), n = 15, fed
ASSAY ENDPOINT: AUC(0-inf) (ng·h/mL)

| TEST SMILES | ASSAY ENDPOINT | READING |
| --- | --- | --- |
| C#C[C@]1(O)CC[C@H]2[C@@H]3CCc4cc(O)ccc4[C@H]3CC[C@@]21C | AUC(0-inf) | 0.967 |

---

# Type: in vivo, human
# CONDITION CONTEXT: female, human, plasma, oral, Cmax, mean (CV%), OC + ziritaxestat 600 mg q.d. (day 18, MD), n = 13
ASSAY ENDPOINT: Cmax (ng/mL)

| COMPOUND | ASSAY ENDPOINT | READING |
| --- | --- | --- |
| C[C@]12CCC(=O)C=C1[C@@H]1C[C@@H]1[C@H]1[C@@H]3[C@@H]4C[C@@H]4[C@@]4(CCC(=O)O4)[C@@]3(C)CC[C@@H]12 [Drospirenone, drospirenone] | Cmax | 22.6 |

---

# Format: in vivo, human
# CONDITION CONTEXT: female, human, plasma, oral, Tmax, median (minimum, maximum), OC + ziritaxestat 600 mg q.d. (day 8, SD), n = 14
ASSAY ENDPOINT: Tmax (h)

| TEST SMILES | READING |
| --- | --- |
| C[C@]12CCC(=O)C=C1[C@@H]1C[C@@H]1[C@H]1[C@@H]3[C@@H]4C[C@@H]4[C@@]4(CCC(=O)O4)[C@@]3(C)CC[C@@H]12 | 2.5 |

---

# Format: in vivo, human
# CONDITION CONTEXT: female, human, plasma, oral, AUC0–inf, mean (CV%), OC + ziritaxestat 600 mg q.d. (day 18, MD), n = 13
ASSAY ENDPOINT: AUC(0-inf)

| COMPOUND | ASSAY ENDPOINT | READING |
| --- | --- | --- |
| C[C@]12CCC(=O)C=C1[C@@H]1C[C@@H]1[C@H]1[C@@H]3[C@@H]4C[C@@H]4[C@@]4(CCC(=O)O4)[C@@]3(C)CC[C@@H]12 [Drospirenone, drospirenone] | AUC(0-inf) | 708 ng·h/mL |
| C#C[C@]1(O)CC[C@H]2[C@@H]3CCc4cc(O)ccc4[C@H]3CC[C@@]21C [Ethinyl estradiol, ethinyl estradiol] | AUC(0-inf) | 2.18 ng·h/mL |

---

# Assay type: in vivo, human
# CONDITION CONTEXT: female, human, plasma, oral, t 1/2, mean (CV%), OC + ziritaxestat 600 mg q.d. (day 8, SD), n = 14
Below, each entry is listed with its recorded half-life.

| MOLECULE | READING UNIT | half-life |
| --- | --- | --- |
| C#C[C@]1(O)CC[C@H]2[C@@H]3CCc4cc(O)ccc4[C@H]3CC[C@@]21C [Ethinyl estradiol, ethinyl estradiol] | h | 30.1 |
| C[C@]12CCC(=O)C=C1[C@@H]1C[C@@H]1[C@H]1[C@@H]3[C@@H]4C[C@@H]4[C@@]4(CCC(=O)O4)[C@@]3(C)CC[C@@H]12 [Drospirenone, drospirenone] | h | 44.7 |
